Target: PBP1a (Escherichia coli)
# pIC50 annotations
Scale explanation: pIC50 corresponds to minus log10 of a concentration expressed in moles per litre.

Examples with answers:
compound	testResult
C[C@@H](O)[C@H]1C(=O)N2C(C(=O)O)=C([C@H]3CCCO3)S[C@H]12 [faropenem]	5.19
CC1(C)S[C@@H]2[C@H](NC(=O)Cc3ccccc3)C(=O)N2[C@H]1C(=O)O [penicillin G]	3.77

Consider the record given below.
Incoming: Give PBP1a (Escherichia coli) pIC50 for C[C@H]1[C@H](NC(=O)/C(=N\OC(C)(C)C(=O)O)c2csc(N)n2)C(=O)N1S(=O)(=O)O [aztreonam]
Outgoing: 3.01

###

Target: PBP1b (Escherichia coli, UniProt P02919)
Sequence (P02919 whole entry): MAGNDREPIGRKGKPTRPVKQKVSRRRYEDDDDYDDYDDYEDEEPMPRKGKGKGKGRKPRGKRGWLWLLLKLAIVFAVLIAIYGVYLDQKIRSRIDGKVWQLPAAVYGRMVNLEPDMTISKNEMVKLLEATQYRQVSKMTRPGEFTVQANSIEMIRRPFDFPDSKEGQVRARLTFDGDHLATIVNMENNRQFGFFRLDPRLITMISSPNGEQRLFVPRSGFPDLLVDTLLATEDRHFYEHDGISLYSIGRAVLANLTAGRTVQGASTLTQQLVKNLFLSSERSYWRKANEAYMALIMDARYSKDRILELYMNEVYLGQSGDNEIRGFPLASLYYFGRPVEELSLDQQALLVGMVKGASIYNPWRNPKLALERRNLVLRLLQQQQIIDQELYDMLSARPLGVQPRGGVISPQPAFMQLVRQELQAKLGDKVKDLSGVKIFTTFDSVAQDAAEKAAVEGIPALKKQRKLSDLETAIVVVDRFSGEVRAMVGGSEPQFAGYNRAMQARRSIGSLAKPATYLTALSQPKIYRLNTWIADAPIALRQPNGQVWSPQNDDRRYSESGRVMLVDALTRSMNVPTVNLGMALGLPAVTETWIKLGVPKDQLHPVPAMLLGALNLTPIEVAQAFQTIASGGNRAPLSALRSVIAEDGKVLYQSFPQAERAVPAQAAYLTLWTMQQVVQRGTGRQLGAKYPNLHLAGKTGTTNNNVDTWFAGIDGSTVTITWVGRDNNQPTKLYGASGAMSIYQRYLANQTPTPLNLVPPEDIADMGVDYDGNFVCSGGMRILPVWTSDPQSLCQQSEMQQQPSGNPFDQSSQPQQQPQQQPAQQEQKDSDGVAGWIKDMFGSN
quantityName: pIC50
Remember the convention: pIC50 equals -log10 of concentration in molar.

Please review the entries below; each comes with its answer.
smilesInput	pIC50
CCN1CCN(C(=O)N[C@@H](C(=O)N[C@@H]2C(=O)N3[C@@H]2SC(C)(C)[C@@H]3C(=O)O)c2ccccc2)C(=O)C1=O	4.92
CC1(C)S[C@@H]2[C@H](NC(=O)Cc3ccccc3)C(=O)N2[C@H]1C(=O)O	5.82

Incoming: Which pIC50 is reported for this molecule? C[C@H]1[C@H](NC(=O)/C(=N\OC(C)(C)C(=O)O)c2csc(N)n2)C(=O)N1S(=O)(=O)O
Outgoing: 5.80
